The measured values listed here are drawn from patent US20230219965A1.

Target: USP1/UAF1 enzyme (Homo sapiens)
Sequence (O94782 whole entry): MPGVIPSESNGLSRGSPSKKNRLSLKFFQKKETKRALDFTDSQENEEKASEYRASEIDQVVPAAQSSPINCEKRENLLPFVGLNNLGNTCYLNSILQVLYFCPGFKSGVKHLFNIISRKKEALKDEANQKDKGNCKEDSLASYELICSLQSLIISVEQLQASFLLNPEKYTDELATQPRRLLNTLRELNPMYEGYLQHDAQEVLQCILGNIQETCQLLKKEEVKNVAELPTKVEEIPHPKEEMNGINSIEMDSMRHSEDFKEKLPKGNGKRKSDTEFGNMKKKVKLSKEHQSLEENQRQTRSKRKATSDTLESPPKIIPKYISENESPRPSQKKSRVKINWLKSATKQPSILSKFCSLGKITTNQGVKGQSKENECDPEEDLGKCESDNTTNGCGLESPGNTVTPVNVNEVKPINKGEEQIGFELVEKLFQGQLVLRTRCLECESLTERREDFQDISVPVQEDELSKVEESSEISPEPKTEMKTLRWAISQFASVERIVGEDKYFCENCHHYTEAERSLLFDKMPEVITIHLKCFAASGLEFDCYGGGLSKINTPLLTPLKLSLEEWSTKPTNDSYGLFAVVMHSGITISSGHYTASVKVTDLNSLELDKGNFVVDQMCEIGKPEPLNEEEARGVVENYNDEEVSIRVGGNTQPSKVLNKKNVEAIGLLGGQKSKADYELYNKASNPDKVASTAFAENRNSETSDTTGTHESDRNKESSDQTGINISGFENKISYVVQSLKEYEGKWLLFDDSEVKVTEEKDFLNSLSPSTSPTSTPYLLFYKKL
Sequence (Q8TAF3 whole entry partner): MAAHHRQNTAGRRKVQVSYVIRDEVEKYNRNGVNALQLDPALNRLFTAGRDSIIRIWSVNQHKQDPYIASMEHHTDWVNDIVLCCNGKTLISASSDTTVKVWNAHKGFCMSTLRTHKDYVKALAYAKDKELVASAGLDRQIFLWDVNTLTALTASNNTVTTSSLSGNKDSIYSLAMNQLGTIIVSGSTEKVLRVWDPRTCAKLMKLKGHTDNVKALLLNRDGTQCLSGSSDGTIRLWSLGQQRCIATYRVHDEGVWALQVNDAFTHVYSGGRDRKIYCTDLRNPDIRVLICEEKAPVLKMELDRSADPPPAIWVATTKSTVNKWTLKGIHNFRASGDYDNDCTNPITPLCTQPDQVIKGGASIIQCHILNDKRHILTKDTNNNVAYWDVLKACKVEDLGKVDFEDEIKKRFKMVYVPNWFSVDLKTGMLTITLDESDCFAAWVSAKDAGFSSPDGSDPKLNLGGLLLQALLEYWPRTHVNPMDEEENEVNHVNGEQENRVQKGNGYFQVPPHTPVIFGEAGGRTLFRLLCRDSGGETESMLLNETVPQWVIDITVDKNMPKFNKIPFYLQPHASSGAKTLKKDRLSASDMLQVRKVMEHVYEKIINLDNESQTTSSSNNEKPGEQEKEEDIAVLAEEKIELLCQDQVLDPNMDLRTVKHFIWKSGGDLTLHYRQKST
Assay: USP1/UAF1 deubiquitination assay (ubiquitin-rhodamine 110 substrate)
Conditions: read-out: USP1 IC50 (Ub-Rho)
measurement type: IC50

CCn1cc(C(F)(F)F)nc1-c1ccc(CN2C(=O)CCn3nc(-c4c(Cl)cnn4C(C)C)cc32)cc1    < 100 nM
CCn1cc(C(F)(F)F)nc1-c1c(F)cc(CN2C(=O)CCn3nc(-c4c(OC)ncnc4C4CC4)cc32)cc1OC    < 100 nM

## Task # lookup: IC50 of CCn1cc(C(F)(F)F)nc1-c1ccc(C(C)N2CCCn3nc(-c4c(Cl)cnn4C(C)C)cc32)cc1 (stereo not shown)
## Result < 100 nM

## Task Recorded IC50 for COc1cc([C@H](C)N2C(=O)CCn3nc(-c4c(OC)ncnc4C4CC4)cc32)ccc1-c1nc(C(F)(F)F)cn1C(C)C , please?
## Result 100 to 500 nM
